# Protocol: Solubility in first and second solution for disintegration test (Japanese Pharmacopoeia)
# Format: physicochemical
# Measurement setup: first solution for disintegration test, pH 1.2, room temperature, 12 hours or longer
Below, each of the compounds is paired with its reported Solubility (μg/mL) pH 1.2 value.
Dear colleague, please return just the value in μg/mL, with no unit written.

>  <Compound>
CC(=O)O[C@@]12CO[C@@H]1CC[C@@]1(C)[C@@H]3O[C@H](CN4CCC4)O[C@@H]3C3=C(C)[C@@H](OC(=O)[C@H](O)[C@@H](NC(=O)OC(C)(C)C)C(F)F)C[C@@](O)([C@@H](OC(=O)c4ccccc4)[C@@H]12)C3(C)C [Example 31]

>  <Solubility (μg/mL) pH 1.2>
1000

$$$$
>  <Compound>
CC[C@H](NC(=O)OC(C)(C)C)[C@@H](O)C(=O)O[C@H]1C[C@@]2(O)[C@@H](OC(=O)c3ccccc3)[C@H]3[C@@](C)(CC[C@H]4OC[C@]43OC(C)=O)[C@@H]3O[C@H](CN4CCC4)O[C@@H]3C(=C1C)C2(C)C [Example 37]

>  <Solubility (μg/mL) pH 1.2>
670

$$$$
>  <Compound>
CC(=O)OC12COC1CCC1(C)C3OC(CN4CCC4)OC3C3=C(C)C(OC(=O)C(O)C(CF)NC(=O)OC(C)(C)C)CC(O)(C(OC(=O)c4ccccc4)C12)C3(C)C (stereo not shown) [Example 34]

>  <Solubility (μg/mL) pH 1.2>
830

$$$$

Problem: Give me measured Solubility (μg/mL) pH 1.2, please, for this compound: CC(=O)O[C@@]12CO[C@@H]1CC[C@@]1(C)[C@@H]3O[C@H](CN4CCC4)O[C@@H]3C3=C(C)[C@@H](OC(=O)[C@H](O)[C@@H](NC(=O)OC(C)(C)C)c4ncco4)C[C@@](O)([C@@H](OC(=O)c4ccccc4)[C@@H]12)C3(C)C [Example 41]
Solution: 910

###

Below, each of the compounds is paired with its reported Therapeutic index value.
# Tested on: B16 melanoma BL6
# Protocol: Antitumor effect in mice subcutaneously transplanted with B16 melanoma BL6
# Format: in vivo, Mice (C57BL/6)
# Measurement setup: B16 Melanoma BL6, iv; MTD/MED
I'd appreciate a reply containing only the number, no unit.

>  <Compound>
CC(=O)O[C@@]12CO[C@@H]1CC[C@@]1(C)[C@@H]3O[C@H](CN4CCC4)O[C@@H]3C3=C(C)[C@@H](OC(=O)[C@H](O)[C@@H](NC(=O)OC(C)(C)C)c4ncco4)C[C@@](O)([C@@H](OC(=O)c4ccccc4)[C@@H]12)C3(C)C

>  <Study system>
B16 melanoma BL6

>  <Endpoint value>
4.2

$$$$
>  <Compound>
CC[C@H](NC(=O)OC(C)(C)C)[C@@H](O)C(=O)O[C@H]1C[C@@]2(O)[C@@H](OC(=O)c3ccccc3)[C@H]3[C@@](C)(CC[C@H]4OC[C@]43OC(C)=O)[C@@H]3O[C@H](CN4CCC4)O[C@@H]3C(=C1C)C2(C)C

>  <Study system>
B16 melanoma BL6

>  <Endpoint value>
4.2

$$$$
>  <Compound>
CC(=O)O[C@@]12CO[C@@H]1CC[C@@]1(C)[C@@H]3O[C@H](CN4CCC4)O[C@@H]3C3=C(C)[C@@H](OC(=O)[C@H](O)[C@@H](NC(=O)OC(C)(C)C)c4nccs4)C[C@@](O)([C@@H](OC(=O)c4ccccc4)[C@@H]12)C3(C)C

>  <Study system>
B16 melanoma BL6

>  <Endpoint value>
4.2

$$$$
>  <Compound>
CC(=O)O[C@@]12CO[C@@H]1CC[C@@]1(C)[C@@H]3O[C@H](CN4CC[C@H]4CO)O[C@@H]3C3=C(C)[C@@H](OC(=O)[C@H](O)[C@@H](NC(=O)OC(C)(C)C)c4ncccc4F)C[C@@](O)([C@@H](OC(=O)c4ccccc4)[C@@H]12)C3(C)C

>  <Study system>
B16 melanoma BL6

>  <Endpoint value>
6.0

$$$$

Problem: Give me measured Therapeutic index, please, for this compound: CC(=O)O[C@@]12CO[C@@H]1CC[C@@]1(C)[C@@H]3O[C@H](CN4CCC4)O[C@@H]3C3=C(C)[C@@H](OC(=O)[C@H](O)[C@@H](NC(=O)OC(C)(C)C)c4ncccc4F)C[C@@](O)([C@@H](OC(=O)c4ccccc4)[C@@H]12)C3(C)C
Solution: 2.9

Problem: Give me measured Therapeutic index, please, for this compound: CC(=O)OC12COC1CCC1(C)C3OC(CN4CCC4)OC3C3=C(C)C(OC(=O)C(O)C(CF)NC(=O)OC(C)(C)C)CC(O)(C(OC(=O)c4ccccc4)C12)C3(C)C (stereo not shown)
Solution: 4.2

Problem: Give me measured Therapeutic index, please, for this compound: CC(=O)O[C@@]12CO[C@@H]1CC[C@@]1(C)[C@@H]3O[C@H](CN4CCC4)O[C@@H]3C3=C(C)[C@@H](OC(=O)[C@H](O)[C@@H](NC(=O)OC(C)(C)C)C(F)F)C[C@@](O)([C@@H](OC(=O)c4ccccc4)[C@@H]12)C3(C)C
Solution: 2.9

###

Below, each of the compounds is paired with its reported solubility value.
# Protocol: Solubility in first and second solution for disintegration test (Japanese Pharmacopoeia)
# Type: physicochemical
# Measurement setup: aqueous buffer, thermodynamic from solid; second solution for disintegration test, pH 6.8, room temperature, 12 hours or longer; read-out: Solubility (μg/mL) pH 6.8
Dear colleague, please return just the value in µg/mL, with no unit written.

Some compounds with recorded solubility:
>  <Compound>
CC(=O)O[C@@]12CO[C@@H]1CC[C@@]1(C)[C@@H]3O[C@H](CN4CC[C@H]4CO)O[C@@H]3C3=C(C)[C@@H](OC(=O)[C@H](O)[C@@H](NC(=O)OC(C)(C)C)c4ccccn4)C[C@@](O)([C@@H](OC(=O)c4ccccc4)[C@@H]12)C3(C)C [Example 21]

>  <Result units>
µg/mL

>  <solubility>
150

$$$$
>  <Compound>
CC(=O)O[C@@]12CO[C@@H]1CC[C@@]1(C)[C@@H]3O[C@H](CN4CC(C(=O)N(C)C)C4)O[C@@H]3C3=C(C)[C@@H](OC(=O)[C@H](O)[C@@H](NC(=O)OC(C)(C)C)c4ccccn4)C[C@@](O)([C@@H](OC(=O)c4ccccc4)[C@@H]12)C3(C)C [Example 9]

>  <Result units>
µg/mL

>  <solubility>
130

$$$$

// below: solubility requested for another compound
Problem: Give me measured solubility, please, for this compound: CC(=O)O[C@@]12CO[C@@H]1CC[C@@]1(C)[C@@H]3O[C@H](CN4CC(C)(O)C4)O[C@@H]3C3=C(C)[C@@H](OC(=O)[C@H](O)[C@@H](NC(=O)OC(C)(C)C)c4ncccc4F)C[C@@](O)([C@@H](OC(=O)c4ccccc4)[C@@H]12)C3(C)C [Example 12]
Solution: 92

###

Here's a batch of compounds along with measured GI50 for HCT-15 (P glycoprotein (P-gp) expressing human colon cancer cell line).
Dear colleague, please return just the value in ng/mL, with no unit written.

>  <Structure as smiles>
CC(=O)O[C@@]12CO[C@@H]1CC[C@@]1(C)[C@@H]3O[C@H](CN4CC(O)C4)O[C@@H]3C3=C(C)[C@@H](OC(=O)[C@H](O)[C@@H](NC(=O)OC(C)(C)C)c4ccccn4)C[C@@](O)([C@@H](OC(=O)c4ccccc4)[C@@H]12)C3(C)C

>  <Endpoint value>
8.08

$$$$
>  <Structure as smiles>
CC(=O)O[C@@]12CO[C@@H]1CC[C@@]1(C)[C@@H]3O[C@H](CN4CCC4)O[C@@H]3C3=C(C)[C@@H](OC(=O)[C@H](O)[C@@H](NC(=O)OC(C)(C)C)c4ncccc4F)C[C@@](O)([C@@H](OC(=O)c4ccccc4)[C@@H]12)C3(C)C

>  <Endpoint value>
2.31

$$$$
>  <Structure as smiles>
CC(=O)O[C@@]12CO[C@@H]1CC[C@@]1(C)[C@@H]3O[C@H](CN4CC(C)(O)C4)O[C@@H]3C3=C(C)[C@@H](OC(=O)[C@H](O)[C@@H](NC(=O)OC(C)(C)C)c4ccccn4)C[C@@](O)([C@@H](OC(=O)c4ccccc4)[C@@H]12)C3(C)C

>  <Endpoint value>
4.21

$$$$

Problem: Give me measured GI50, please, for this compound: COC1CN(C[C@@H]2O[C@@H]3C4=C(C)[C@@H](OC(=O)[C@H](O)[C@@H](NC(=O)OC(C)(C)C)c5ncccc5F)C[C@@](O)([C@@H](OC(=O)c5ccccc5)[C@H]5[C@@](C)(CC[C@H]6OC[C@]65OC(C)=O)[C@@H]3O2)C4(C)C)C1
Solution: 0.236
